# System: Bacillus subtilis
# Procedure Text: cleaved RNA product abundance (RNA/gDNA barcode ratio) relative to median wild-type variant (ratio to wild type); higher = more accumulation of the downstream cleavage product
# Experimental Parameters: experiment (reporter, strain, medium): exp 4a: truncated aprE reporter, strain BJT201 with 2% xylose (RNase J1 expressed); cleavage site: cggR-gapA (positions -7 to +36 mutated)
cleaved RNA product abundance by entry:
Observed Property: cleaved RNA product abundance

sequence_text=ACAGACGAAGGAGCCGCAAAGCAGTTATTAAGGGATGAATAATCCCTCAATATATATATCTCTCACTTATTTAAA observed_property="cleaved RNA product abundance" val=0.687
sequence_text=ACAGACGAAGGAGCCGCAAAGAAGTAATTAAGGGATGAATAATCCCTCCATATAAATATCTCTCACTTATTTAAA observed_property="cleaved RNA product abundance" val=0.0749
sequence_text=ACAGACGAAGGAGCCGCAAAGAAGTCATTAAGGGATTAATAATCCCTCAATATAAATATCTCTCACTTATTTAAA observed_property="cleaved RNA product abundance" val=0.236
sequence_text=ACAGACGAAGGAGCCGCAAAGAAGTTATTAAGGCATGAATAATACCTCAATATAAATATCTCTCACTTATTTAAA observed_property="cleaved RNA product abundance" val=0.153
sequence_text=ACAGACGAAGGAGCCGCAAAGAAGTTATTAAGGGATGAATAACCCCTCTATATAAATATCTCTCACTTATTTAAA observed_property="cleaved RNA product abundance" val=0.229
sequence_text=ACAGACGAAGGAGCCGCAAAGAAGTTATTAAGGGATGAATAATCCCACAATATGAATATCTCTCACTTATTTAAA observed_property="cleaved RNA product abundance" val=0.0667
sequence_text=ACAGACGAAGGAGCCGCAAAGAAGTTATTAAGGGATGAATACTCACTCAATATAAATATCTCTCACTTATTTAAA observed_property="cleaved RNA product abundance" val=0.0953
sequence_text=ACAGACGAAGGAGCCGCAAAGAAGTTATGAAGGGATGTATAATCCCTCAATATAAATATCTCTCACTTATTTAAA observed_property="cleaved RNA product abundance" val=0.311
sequence_text=ACAGACGAAGGAGCCGCAAATAAGTTATTAAGGGATGAATAATCCCTCAACATAAATATCTCTCACTTATTTAAA observed_property="cleaved RNA product abundance" val=0.401
sequence_text=ACAGACGAAGGAGCCGCAAAGTAGTTATTATGGGATGAATAATCCCTCAATATAAATATCTCTCACTTATTTAAA observed_property="cleaved RNA product abundance" val=0.445
sequence_text=ACAGACGAAGGAGCCGCAAAGAAGTTATTAAGGCATGAATAATCCCTCAATATAAATATCTCTCACTTATTTAAA observed_property="cleaved RNA product abundance" val=0.125
sequence_text=ACAGACGAAGGAGCCGCAAAGAAGTTATTAAAGGATGAATAATCCCTCCATATAAATATCTCTCACTTATTTAAA observed_property="cleaved RNA product abundance" val=0.0862
sequence_text=ACAGACGAAGGAGCCGCAAAGAAGTTATGAAGGGATAAATAATCCCTCAATATAAATATCTCTCACTTATTTAAA observed_property="cleaved RNA product abundance" val=0.542
sequence_text=ACAGACGAAGGAGCCGCAAAGAAGTTATTACGGGATGAATAAACCCTCAATATAAATATCTCTCACTTATTTAAA observed_property="cleaved RNA product abundance" val=0.158
sequence_text=ACAGACGAAGGAGCCGCAAAGAAGTTATTAAACGATGAATAATCCCTCAATATAAATATCTCTCACTTATTTAAA observed_property="cleaved RNA product abundance" val=0.109
sequence_text=ACAGACGAAGGAGCCGCAAAGAACTTATTAAGGGATGAATAATCCCTCAAAATAAATATCTCTCACTTATTTAAA observed_property="cleaved RNA product abundance" val=0.208
sequence_text=ACAGACGAAGGAGCCGCAAAGAAGTTATTAAGGAATGAACAATCCCTCAATATAAATATCTCTCACTTATTTAAA observed_property="cleaved RNA product abundance" val=0.124
sequence_text=ACAGACGAAGGAGCCGCAAAGAAGTTATTAATGGATGAATAAGCCCTCAATATAAATATCTCTCACTTATTTAAA observed_property="cleaved RNA product abundance" val=0.107
sequence_text=ACAGACGAAGGAGCCGCAAAGAAGATATCAAGGGATGAATAATCCCTCAATATAAATATCTCTCACTTATTTAAA observed_property="cleaved RNA product abundance" val=0.522
sequence_text=ACAGACGAAGGAGCCGCAAAGAAGTTATTAAGGTATGAATAATCCCTCAATATAAAAATCTCTCACTTATTTAAA observed_property="cleaved RNA product abundance" val=0.153
sequence_text=ACAGACGAAGGAGCCGCAAAGAAGTTATTAAGGAATGAATACTCCCTCAATATAAATATCTCTCACTTATTTAAA observed_property="cleaved RNA product abundance" val=0.106
sequence_text=ACAGACGAAGGAGCCGCAAACAAGTTATTAAGGGATGAATATTCCCTCAATATAAATATCTCTCACTTATTTAAA observed_property="cleaved RNA product abundance" val=0.608
sequence_text=ACAGACGAAGGAGCCGCAAACAAGTTATTAAGGGATGAATAATCCATCAATATAAATATCTCTCACTTATTTAAA observed_property="cleaved RNA product abundance" val=0.192
sequence_text=ACAGACGAAGGAGCCGCAAAGAAGTTATTAAGGGATGAATAATCTCTCAAAATAAATATCTCTCACTTATTTAAA observed_property="cleaved RNA product abundance" val=0.283
sequence_text=ACAGACGAAGGAGCCGCAAAGAAATTATTAAGGAATGAATAATCCCTCAATATAAATATCTCTCACTTATTTAAA observed_property="cleaved RNA product abundance" val=0.191
sequence_text=ACAGACGAAGGAGCCGCAAAGAAGTGATTAAGGGATGAATAATCCCTCAATATAAATATCTCTCACTTATTTAAA observed_property="cleaved RNA product abundance" val=0.391
sequence_text=ACAGACGAAGGAGCCGCAAATAAGTTATTAAGGGATGAATAATCCCTCAATATAAAGATCTCTCACTTATTTAAA observed_property="cleaved RNA product abundance" val=0.565
sequence_text=ACAGACGAAGGAGCCGCAAAGAAGTTATTAAGGGATGAATAAACCCTCAAAATAAATATCTCTCACTTATTTAAA observed_property="cleaved RNA product abundance" val=0.198
sequence_text=ACAGACGAAGGAGCCGCAAAGAAGTTATTAAGGGCTGAATAAACCCTCAATATAAATATCTCTCACTTATTTAAA observed_property="cleaved RNA product abundance" val=0.47
sequence_text=ACAGACGAAGGAGCCGCAAAGAAATTATTAATGTATGAATAATCCCTCAATATAAATATCTCTCACTTATTTAAA observed_property="cleaved RNA product abundance" val=0.111

---

# Tested on: Bacillus subtilis
# Procedure Text: cleaved RNA product abundance (RNA/gDNA barcode ratio) relative to median wild-type variant (ratio to wild type); higher = more accumulation of the downstream cleavage product
# Experimental Parameters: experiment (reporter, strain, medium): exp 4a: truncated aprE reporter, strain BJT201 with 2% xylose (RNase J1 expressed); cleavage site: cggR-gapA (positions -7 to +36 mutated)
cleaved RNA product abundance by entry:
Observed Property: cleaved RNA product abundance

sequence_text=ACAGACGAAGGAGCCGCAAAGAAGTTATTAAGGGATGAATAATCACTCAATATATATATCTCTCACTTATTTAAA system_under_test="Bacillus subtilis" val=0.132
sequence_text=ACAGACGAAGGAGCCGCAAAGAAGTTATTAAGGTATGAATAATCCCTGAATATAAATATCTCTCACTTATTTAAA system_under_test="Bacillus subtilis" val=0.0951
sequence_text=ACAGACGAAGGAGCCGCAAAGAGGTTATTAAGCGATGAATAATCCCTCAATATAAATATCTCTCACTTATTTAAA system_under_test="Bacillus subtilis" val=0.0624
sequence_text=ACAGACGAAGGAGCCGCAAAAAAGTTTTTAAGGGATGAATAATCCCTCAATATAAATATCTCTCACTTATTTAAA system_under_test="Bacillus subtilis" val=0.435
sequence_text=ACAGACGAAGGAGCCGCAAAGAAGTTATTAAGAGATGAATAATCCCTCGATATAAATATCTCTCACTTATTTAAA system_under_test="Bacillus subtilis" val=0.0848
sequence_text=ACAGACGAAGGAGCCGCAAAAAAGTTATTAAGGGATGAATAATTCCTCTATATAAATATCTCTCACTTATTTAAA system_under_test="Bacillus subtilis" val=0.264
sequence_text=ACAGACGAAGGAGCCGCAAAGAAGTTATTAAGGGATGAATAATCCCTGAAAATAAATATCTCTCACTTATTTAAA system_under_test="Bacillus subtilis" val=0.615
